Recorded koff values for a group of binders are listed next.
Target: T1, recombinant human CD63 extracellular loop 2 expressed with a C-terminal Myc-Myc-hexahistidine (human)
T1 construct: also called hCD63 EC loop 2-MMH; human CD63 EC loop 2-MMH
T1 sequence (chain, as listed by the source limits assumed): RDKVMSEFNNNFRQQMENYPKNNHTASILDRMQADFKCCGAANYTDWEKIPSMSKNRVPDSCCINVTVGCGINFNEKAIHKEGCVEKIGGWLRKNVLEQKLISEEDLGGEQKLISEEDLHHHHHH
Test: SPR Biacore, mAb captured, 37C
REPORTED METRIC: koff (s⁻¹)

BINDER	VALUE
H2M12450N (antibody, V domains shown, also called H2aM12450N; mAb12450) VH: QVQLQESGPKVVKPSETLSLTCTVSGGSISSYYWNWIRQSPGKGLEWIGYTKRGYTDYNPSLRSRVTISEDTSKNQFSLRISSVTAADTAVYYCAQMGWGSHAFDMWGQGTMVAVSS VL: EIVLTQSPGTLSLSPGERATLSCRASQSVNSRYLAWYQQKPGQAPRLLIYGASSRATGIPDRCSGSGSGTDFTLTISRLEPEDFAVYYCQQYGSSPWTFGQGTKVEIK	0.000201
H1M12386N (antibody, V domains shown) VH: QVQLEESGGGVVKAGGSLRLSCVASGFTFSDYYINWIRQAPGKGLEWVSYINNGGYTIYYADSVKGRFTMSRDNAKNSVYLEMNGLRAEDTAFYYCVRDPRSYYGFDYWGQGTLVTVSS VL: DIQMTQSPSSLSASVGDRVTITCRASQSISSYLNWNQQKPGKAPKLLIYVASSLQSGVPSRFSGSGSGTDFTLTISGLQPEDFAPYYCQQSYITPPITFGQGTRLDIK	0.00235
H2M12454N (antibody, V domains shown, also called H2bM12454N) VH: QVQLVESGGGLVKPGGSLRLSCAVSGFTYTDYFMNWIRQAPGKGLEWVSYISNSGAIKYYADSVKGRFTISRDNAKNSLYLQMNGLRADDTAVYYCVRDPRSYYGFDYWGQGTLVTVSS VL: DIQMTQSPSSLSASVGDRVTITCRASQSISNFLNWYQQKPGKAPRLLIYGASNLQSGVPSRFSGGGSGTDFTLTISSLQPADFATYYCQQSFSNPPVTFGQGTRLEIN	0.00591
